Hey, just so you know, these numbers are from patent US11408885B2.

Target under test: MMP9 (Homo sapiens, UniProt P14780)
Sequence (P14780 107-449 limits assumed): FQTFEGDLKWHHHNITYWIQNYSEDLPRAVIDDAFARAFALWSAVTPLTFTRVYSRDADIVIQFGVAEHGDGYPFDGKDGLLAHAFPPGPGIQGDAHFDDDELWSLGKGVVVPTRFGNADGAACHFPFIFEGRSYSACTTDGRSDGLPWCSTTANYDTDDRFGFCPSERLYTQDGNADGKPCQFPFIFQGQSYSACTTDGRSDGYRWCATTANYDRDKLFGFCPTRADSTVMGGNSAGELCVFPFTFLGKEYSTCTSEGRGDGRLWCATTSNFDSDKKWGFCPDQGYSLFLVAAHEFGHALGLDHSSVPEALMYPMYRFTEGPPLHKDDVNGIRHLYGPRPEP
Protocol notes: FRET substrate cleavage by recombinant MMP, inhibition by activity-based probe
Type: biochemical
Set-up: The recombinant catalytic domains of human MMPs 7 and 9 were purchased from Enzo Life Sciences, and of MMP 12 from Anaspec; purchased Enzo Life Sciences
Test conditions: FRET substrate PEPDAB011 10 μM, read-out: IC50, inhibition of substrate cleavage of active MMP
Measurement label: pIC50
Lab note — pIC50 values are minus log10 of concentrations in M.

Please report the recorded pIC50 for CC(C)CC(C(=O)NC(Cc1ccc(C(=O)c2ccccc2)cc1)C(=O)NCCOCCOCCOCC(=O)NCC(C)(C)SSC(C)(C)CNC(=O)CCCCC1SCC2NC(=O)NC21)C(O)C(=O)NO (stereo not shown) . 8.57
